# protocol_text: Glutathione peroxidase activity assessed by GSH-GSSG coupled assay
# Format: functional
metric_name: Km (mM)

>>> print(df.to_string())
                                   compound  metric_name  recorded_measurement
0               O=c1c2ccccc2[se]n1-c1ccccc1           Km                  13.2
1       O=C(Nc1ccccc1)c1ccccc1[Se]Cc1ccccc1           Km                   2.2
2               C[Se]c1ccccc1C(=O)Nc1ccccc1           Km                  5.25
3  O=C(Nc1ccccc1)c1ccccc1[Te][Te]c1ccccc1C(=O)Nc1ccccc1 [EBSELEN DITELLURIDE]           Km                   2.3

###

# protocol_text: Effect on gamma irradiation-induced TBARS formation in liposomes at 50 uM
# Format: functional
# reported_conditions: Liposome
Activity calls are given as the source filed them. No cut-off for these calls is given here.
metric_name: Activity

>>> print(df.to_string())
                                   compound  recorded_measurement
0               C[Se]c1ccccc1C(=O)Nc1ccccc1                Active
1  O=C(Nc1ccccc1)c1ccccc1[Te][Te]c1ccccc1C(=O)Nc1ccccc1 [EBSELEN DITELLURIDE]                Active
2  O=C(Nc1ccccc1)c1ccccc1[Se][Se]c1ccccc1C(=O)Nc1ccccc1 [EBSELEN DISELENIDE]                Active
3       O=C(Nc1ccccc1)c1ccccc1[Se]Cc1ccccc1                Active

###

# protocol_text: Inhibition of horseradish peroxidase by spectrophotometric method
# Parameters: species or system Armoracia rusticana
Recorded measurements of IC50, one per entry
metric_name: IC50 (µM)

In [3]: df
Out[3]:
                                   compound  bound_sign  recorded_measurement
0               C[Se]c1ccccc1C(=O)Nc1ccccc1           >                   100
1  O=C(Nc1ccccc1)c1ccccc1[Se][Se]c1ccccc1C(=O)Nc1ccccc1 [EBSELEN DISELENIDE]           =                    50
2       O=C(Nc1ccccc1)c1ccccc1[Se]Cc1ccccc1           >                   100
3               O=c1c2ccccc2[se]n1-c1ccccc1           =                  16.9
4  O=C(Nc1ccccc1)c1ccccc1[Te][Te]c1ccccc1C(=O)Nc1ccccc1 [EBSELEN DITELLURIDE]           =                  17.3
